- subject-of-test: Tyrosine-protein phosphatase non-receptor type 6 (Homo sapiens)
- Sequence (P29350 whole entry): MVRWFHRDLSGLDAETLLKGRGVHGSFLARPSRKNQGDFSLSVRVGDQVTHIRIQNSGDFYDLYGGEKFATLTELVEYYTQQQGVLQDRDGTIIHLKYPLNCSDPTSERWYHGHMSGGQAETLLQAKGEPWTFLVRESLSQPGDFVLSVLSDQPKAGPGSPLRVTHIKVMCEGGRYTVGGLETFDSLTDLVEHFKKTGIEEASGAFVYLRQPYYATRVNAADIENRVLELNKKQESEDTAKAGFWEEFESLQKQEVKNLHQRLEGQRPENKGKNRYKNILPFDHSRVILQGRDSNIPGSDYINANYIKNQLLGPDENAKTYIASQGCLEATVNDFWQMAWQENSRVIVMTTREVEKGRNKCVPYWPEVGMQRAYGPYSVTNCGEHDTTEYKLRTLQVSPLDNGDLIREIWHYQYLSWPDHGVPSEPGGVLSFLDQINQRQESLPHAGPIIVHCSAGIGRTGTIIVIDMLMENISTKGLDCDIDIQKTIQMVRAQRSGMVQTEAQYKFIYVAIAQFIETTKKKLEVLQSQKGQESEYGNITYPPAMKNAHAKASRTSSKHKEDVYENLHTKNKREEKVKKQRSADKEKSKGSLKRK
property-measured: pIC50
Recall that pIC50 is obtained by taking minus log10 of the concentration measured in molar.

Q. // fetch pIC50 for `O=C(O)c1cc2sc(Nc3cccc(Br)c3)nc2cc1O` ; system: Tyrosine-protein phosphatase non-receptor type 6 (Homo sapiens)
A. 4.11

----------
- subject-of-test: Receptor-type tyrosine-protein phosphatase C (Homo sapiens, UniProt P08575)
- Sequence (P08575 whole entry): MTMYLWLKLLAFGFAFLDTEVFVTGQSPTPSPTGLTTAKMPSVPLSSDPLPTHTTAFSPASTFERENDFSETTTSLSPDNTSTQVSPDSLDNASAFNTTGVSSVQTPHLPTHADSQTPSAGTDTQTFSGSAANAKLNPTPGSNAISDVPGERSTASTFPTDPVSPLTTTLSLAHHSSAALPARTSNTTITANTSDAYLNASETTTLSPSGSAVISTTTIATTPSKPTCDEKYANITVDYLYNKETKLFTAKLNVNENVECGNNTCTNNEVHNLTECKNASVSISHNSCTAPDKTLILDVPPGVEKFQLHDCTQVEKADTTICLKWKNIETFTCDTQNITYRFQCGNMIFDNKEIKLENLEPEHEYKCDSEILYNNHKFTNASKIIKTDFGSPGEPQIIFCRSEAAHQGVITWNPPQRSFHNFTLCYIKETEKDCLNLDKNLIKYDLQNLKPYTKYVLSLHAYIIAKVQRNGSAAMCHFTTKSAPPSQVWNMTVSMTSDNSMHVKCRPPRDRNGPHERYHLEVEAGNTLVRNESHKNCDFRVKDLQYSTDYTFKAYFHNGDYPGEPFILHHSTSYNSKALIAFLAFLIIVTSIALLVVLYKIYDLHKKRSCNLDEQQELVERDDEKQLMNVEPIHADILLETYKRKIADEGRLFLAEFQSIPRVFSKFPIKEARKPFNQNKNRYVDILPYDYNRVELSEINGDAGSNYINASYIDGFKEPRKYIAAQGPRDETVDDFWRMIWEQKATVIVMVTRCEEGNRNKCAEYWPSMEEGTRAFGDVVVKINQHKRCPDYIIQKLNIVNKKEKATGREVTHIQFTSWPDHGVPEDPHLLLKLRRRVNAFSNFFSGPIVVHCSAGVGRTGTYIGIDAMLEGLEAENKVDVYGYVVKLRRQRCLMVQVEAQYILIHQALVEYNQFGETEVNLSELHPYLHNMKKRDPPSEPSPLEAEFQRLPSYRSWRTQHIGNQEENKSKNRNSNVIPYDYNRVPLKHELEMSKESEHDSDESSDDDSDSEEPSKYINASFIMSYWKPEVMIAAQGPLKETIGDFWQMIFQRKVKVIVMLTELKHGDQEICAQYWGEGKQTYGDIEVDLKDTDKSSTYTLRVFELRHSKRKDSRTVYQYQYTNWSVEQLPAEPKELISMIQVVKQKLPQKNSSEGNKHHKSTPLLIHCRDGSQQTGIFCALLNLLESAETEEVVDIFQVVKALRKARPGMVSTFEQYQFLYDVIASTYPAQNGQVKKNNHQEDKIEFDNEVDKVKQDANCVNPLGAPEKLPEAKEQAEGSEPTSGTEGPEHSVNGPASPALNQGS
pIC50: −log10 of the molar value.
property-measured: pIC50

Q. Hello, please tell me recorded pIC50 for this one: `O=C(O)c1cc2sc(Nc3cccc(Br)c3)nc2cc1O`
A. < 4.00

----------
- subject-of-test: Laforin (Homo sapiens)
- Sequence (O95278 whole entry): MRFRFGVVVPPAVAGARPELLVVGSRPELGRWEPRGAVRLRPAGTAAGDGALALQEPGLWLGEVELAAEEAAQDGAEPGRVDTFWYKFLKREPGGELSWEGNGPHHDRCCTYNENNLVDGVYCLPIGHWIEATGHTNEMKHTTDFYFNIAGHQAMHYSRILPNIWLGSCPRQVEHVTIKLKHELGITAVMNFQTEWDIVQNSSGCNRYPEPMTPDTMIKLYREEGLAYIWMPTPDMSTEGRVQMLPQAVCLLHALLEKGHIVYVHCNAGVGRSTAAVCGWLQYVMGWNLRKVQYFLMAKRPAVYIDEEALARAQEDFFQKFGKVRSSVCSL
property-measured: IC50 (µM)
The reply should be a number in µM, with the unit left off.

Q. // fetch IC50 for `O=C(O)c1cc2sc(Nc3cccc(Br)c3)nc2cc1O` ; system: Laforin (Homo sapiens)
A. 56

----------
- subject-of-test: Dual specificity protein phosphatase 3 (Homo sapiens, UniProt P51452)
- Sequence (P51452 whole entry): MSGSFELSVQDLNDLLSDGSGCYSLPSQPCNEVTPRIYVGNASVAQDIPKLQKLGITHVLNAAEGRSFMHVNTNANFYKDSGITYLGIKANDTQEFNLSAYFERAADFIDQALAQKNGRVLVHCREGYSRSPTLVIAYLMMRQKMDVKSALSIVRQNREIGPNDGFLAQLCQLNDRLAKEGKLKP
property-measured: IC50 (µM)
The reply should be a number in µM, with the unit left off.

Q. // fetch IC50 for `O=C(O)c1cc2sc(Nc3cccc(Br)c3)nc2cc1O` ; system: Dual specificity protein phosphatase 3 (Homo sapiens, UniProt P51452)
A. 43

----------
- subject-of-test: Receptor-type tyrosine-protein phosphatase epsilon (Homo sapiens, UniProt P23469)
- Sequence (P23469 whole entry): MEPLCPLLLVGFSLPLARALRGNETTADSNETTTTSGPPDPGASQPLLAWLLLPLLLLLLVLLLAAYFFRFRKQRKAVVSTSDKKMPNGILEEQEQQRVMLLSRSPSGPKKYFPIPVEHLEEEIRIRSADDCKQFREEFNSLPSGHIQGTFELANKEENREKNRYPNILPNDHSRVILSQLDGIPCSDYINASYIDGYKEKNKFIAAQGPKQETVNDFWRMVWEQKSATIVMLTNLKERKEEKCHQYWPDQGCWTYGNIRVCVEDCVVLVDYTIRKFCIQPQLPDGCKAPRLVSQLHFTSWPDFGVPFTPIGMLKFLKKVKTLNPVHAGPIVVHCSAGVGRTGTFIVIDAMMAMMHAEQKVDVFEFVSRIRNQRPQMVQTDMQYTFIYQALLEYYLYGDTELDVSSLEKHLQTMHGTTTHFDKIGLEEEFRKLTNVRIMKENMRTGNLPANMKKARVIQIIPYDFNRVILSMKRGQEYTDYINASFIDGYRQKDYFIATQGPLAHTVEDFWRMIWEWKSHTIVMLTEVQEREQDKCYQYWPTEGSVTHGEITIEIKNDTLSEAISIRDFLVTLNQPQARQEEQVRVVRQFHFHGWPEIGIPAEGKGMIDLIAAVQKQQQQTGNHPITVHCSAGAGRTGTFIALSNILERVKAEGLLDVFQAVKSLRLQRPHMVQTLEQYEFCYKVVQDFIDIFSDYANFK
property-measured: IC50

Q. // fetch IC50 for `O=C(O)c1cc2sc(Nc3cccc(Br)c3)nc2cc1O` ; system: Receptor-type tyrosine-protein phosphatase epsilon (Homo sapiens, UniProt P23469)
A. > 400 µM

----------
- subject-of-test: Tyrosine-protein phosphatase non-receptor type 1 (Homo sapiens, UniProt P18031)
- Sequence (P18031 whole entry): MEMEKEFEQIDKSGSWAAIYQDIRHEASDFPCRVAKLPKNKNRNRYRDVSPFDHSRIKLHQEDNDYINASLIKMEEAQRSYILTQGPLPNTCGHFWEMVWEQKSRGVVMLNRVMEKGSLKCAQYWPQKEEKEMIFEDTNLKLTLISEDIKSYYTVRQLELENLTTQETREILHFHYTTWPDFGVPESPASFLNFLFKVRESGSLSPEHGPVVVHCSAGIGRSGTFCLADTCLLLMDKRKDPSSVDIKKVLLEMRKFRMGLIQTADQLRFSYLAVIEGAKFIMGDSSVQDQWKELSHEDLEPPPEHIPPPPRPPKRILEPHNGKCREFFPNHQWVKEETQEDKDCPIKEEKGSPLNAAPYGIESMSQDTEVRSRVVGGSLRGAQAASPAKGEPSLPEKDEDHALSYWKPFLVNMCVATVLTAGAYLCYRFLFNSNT
property-measured: IC50 (µM)
The reply should be a number in µM, with the unit left off.

Q. Hello, please tell me recorded IC50 for this one: `O=C(O)c1cc2sc(Nc3cccc(Br)c3)nc2cc1O`
A. 65
